System: KB-V1 (MDR1++)
testDetails: Cell survival assay (SRB), KB-V1 (MDR1++)
# label = Fulfilled if Ratio KBV1/KB >= 50 else Not fulfilled

Example results:
C/C(=C\[C@H](C(C)C)N(C)C(=O)[C@@H](NC(=O)[C@@H](N1CCCC1)C(C)(C)c1ccccc1)C(C)(C)C)C(=O)O ... Not fulfilled
CN[C@H](C(=O)N[C@H](C(=O)N(C)[C@H](/C=C(\C)C(=O)O)C(C)C)C(C)(C)SCc1ccc(OC)cc1)C(C)(C)c1ccccc1 ... Not fulfilled
CN[C@H](C(=O)N[C@H](C(=O)N(C)[C@H](/C=C(\C)C(=O)O)C(C)C)C(C)(C)C)C(C)(C)c1cc(F)cc(F)c1 ... Fulfilled
CN[C@@H](C(=O)N[C@H](C(=O)N(C)[C@H](/C=C(\C)C(=O)O)C(C)C)C(C)(C)C)C(C)(C)c1ccc(C)cc1 ... Fulfilled

Req: Confirm if Ratio KBV1/KB reported for the compound `CN[C@H](C(=O)N[C@H](C(=O)N(C)[C@H](/C=C(/C)C(=O)O)C(C)C)C(C)(C)C)C(C)(C)c1ccccc1` is 50 or above.
Resp: Fulfilled

Req: Confirm if Ratio KBV1/KB reported for the compound `CN[C@H](C(=O)N[C@H](C(=O)N(C)[C@H](/C=C(\C)C(=O)O)C(C)C)C(C)(C)C)C(C)(C)c1ccc(/C=C/c2ccccc2)cc1` is 50 or above.
Resp: Fulfilled

Req: Confirm if Ratio KBV1/KB reported for the compound `CN[C@H](C(=O)N[C@H](C(=O)N(C)[C@H](/C=C(\C)C(=O)O)C(C)C)C(C)(C)O)C(C)(C)c1ccccc1` is 50 or above.
Resp: Fulfilled

###

System: KB-V1 (MDR1++)
testDetails: Cell survival assay (SRB), KB-V1 (MDR1++)
measuredMetric: Ratio KBV1/KB
Returns: the value as a bare number; no unit string appended.

The examples below pair each entry with its known result.
CN[C@H](C(=O)N[C@H](C(=O)N(C)[C@H](/C=C(\C)C(=O)O)C(C)C)C(C)(C)C)C(C)(C)Cc1ccccc1 [Example 48] ... 81.0
CN[C@H](C(=O)N[C@H](C(=O)N(C)[C@H](/C=C(\C)C(=O)O)C(C)C)C(C)(C)C)C(C)(C)c1cc2ccccc2s1 [Example 28] ... 54.4
CC/C(=C\[C@H](CC(C)C)N(C)C(=O)[C@@H](NC(=O)[C@@H](NC)C(C)(C)c1ccccc1)C(C)(C)C)C(=O)O [Example 76] ... 42.4

Please turn your attention to the following entry.
Req: If you can, please state the reported Ratio KBV1/KB value of CN[C@H](C(=O)N[C@H](C(=O)N(C)[C@H](/C=C(\C)C(=O)O)C(C)C)C(C)(C)C)C(C)(C)c1cccc(Br)c1 [Example 37] .
Resp: 82.2

These data points were gathered from patent US20040121965A1.
